measured attribute: melting point

-- ask What value of melting point has been recorded for this entry: CC(C)(C)c1cc(CN(c2cccnc2)S(=O)(=O)c2cccs2)cc(C(C)(C)C)c1O [Example 7]
-- reply 118 to 120 °C

-- ask Repeat for the following compound: CC(C)(C)c1cc(CN(c2cccnc2)S(=O)(=O)c2ccc3ccccc3c2)cc(C(C)(C)C)c1O [Example 17]
-- reply 160 to 171 °C

-- ask Repeat for the following compound: Cc1ccc(S(=O)(=O)N(Cc2cc(C(C)(C)C)c(O)c(C(C)(C)C)c2)c2cccnc2Cl)cc1 [Example 14]
-- reply 117 to 119 °C

-- ask Repeat for the following compound: Cc1ccc(S(=O)(=O)N(Cc2cc(C(C)(C)C)c(O)c(C(C)(C)C)c2)c2cccnc2)cc1 [Example 3]
-- reply 121 to 123 °C

---

Assign melting point to each entry below.

-- ask What value of melting point has been recorded for this entry: CC(C)(C)c1cc(CN(c2cccnc2)S(=O)(=O)c2ccccc2)cc(C(C)(C)C)c1O
-- reply 143 to 145 °C

-- ask Repeat for the following compound: CC(C)(C)c1cc(CN(c2cccnc2)S(C)(=O)=O)cc(C(C)(C)C)c1O
-- reply 133 to 134 °C

-- ask Repeat for the following compound: CC(C)(C)c1cc(CN(c2cccnc2)S(=O)(=O)c2ccccc2Br)cc(C(C)(C)C)c1O
-- reply 105 to 107 °C

-- ask Repeat for the following compound: COc1ccc(N(Cc2cc(C(C)(C)C)c(O)c(C(C)(C)C)c2)S(=O)(=O)c2ccc(C)cc2)cn1
-- reply 127 to 129 °C

-- ask Repeat for the following compound: Cc1ccc(S(=O)(=O)N(Cc2cc(C(C)(C)C)c(O)c(C(C)(C)C)c2)c2ccc(Cl)nc2)cc1
-- reply 152 to 153 °C

-- ask Repeat for the following compound: CC(C)(C)c1cc(CN(c2cccnc2)S(=O)(=O)c2cccc(Br)c2)cc(C(C)(C)C)c1O
-- reply 129 to 131 °C

-- ask Repeat for the following compound: CC(C)(C)c1cc(CN(c2cccnc2)S(=O)(=O)c2cccc([N+](=O)[O-])c2)cc(C(C)(C)C)c1O
-- reply 99 to 107 °C
